For each entry below, report its kon value.
Biological target: T1, monkey C5-mmh (monkey, UniProt P01031 19-1676 (human entry), limits assumed)
T1 construct: Expressed with a C-terminal myc-myc-hexahistidine tag
T1 chain: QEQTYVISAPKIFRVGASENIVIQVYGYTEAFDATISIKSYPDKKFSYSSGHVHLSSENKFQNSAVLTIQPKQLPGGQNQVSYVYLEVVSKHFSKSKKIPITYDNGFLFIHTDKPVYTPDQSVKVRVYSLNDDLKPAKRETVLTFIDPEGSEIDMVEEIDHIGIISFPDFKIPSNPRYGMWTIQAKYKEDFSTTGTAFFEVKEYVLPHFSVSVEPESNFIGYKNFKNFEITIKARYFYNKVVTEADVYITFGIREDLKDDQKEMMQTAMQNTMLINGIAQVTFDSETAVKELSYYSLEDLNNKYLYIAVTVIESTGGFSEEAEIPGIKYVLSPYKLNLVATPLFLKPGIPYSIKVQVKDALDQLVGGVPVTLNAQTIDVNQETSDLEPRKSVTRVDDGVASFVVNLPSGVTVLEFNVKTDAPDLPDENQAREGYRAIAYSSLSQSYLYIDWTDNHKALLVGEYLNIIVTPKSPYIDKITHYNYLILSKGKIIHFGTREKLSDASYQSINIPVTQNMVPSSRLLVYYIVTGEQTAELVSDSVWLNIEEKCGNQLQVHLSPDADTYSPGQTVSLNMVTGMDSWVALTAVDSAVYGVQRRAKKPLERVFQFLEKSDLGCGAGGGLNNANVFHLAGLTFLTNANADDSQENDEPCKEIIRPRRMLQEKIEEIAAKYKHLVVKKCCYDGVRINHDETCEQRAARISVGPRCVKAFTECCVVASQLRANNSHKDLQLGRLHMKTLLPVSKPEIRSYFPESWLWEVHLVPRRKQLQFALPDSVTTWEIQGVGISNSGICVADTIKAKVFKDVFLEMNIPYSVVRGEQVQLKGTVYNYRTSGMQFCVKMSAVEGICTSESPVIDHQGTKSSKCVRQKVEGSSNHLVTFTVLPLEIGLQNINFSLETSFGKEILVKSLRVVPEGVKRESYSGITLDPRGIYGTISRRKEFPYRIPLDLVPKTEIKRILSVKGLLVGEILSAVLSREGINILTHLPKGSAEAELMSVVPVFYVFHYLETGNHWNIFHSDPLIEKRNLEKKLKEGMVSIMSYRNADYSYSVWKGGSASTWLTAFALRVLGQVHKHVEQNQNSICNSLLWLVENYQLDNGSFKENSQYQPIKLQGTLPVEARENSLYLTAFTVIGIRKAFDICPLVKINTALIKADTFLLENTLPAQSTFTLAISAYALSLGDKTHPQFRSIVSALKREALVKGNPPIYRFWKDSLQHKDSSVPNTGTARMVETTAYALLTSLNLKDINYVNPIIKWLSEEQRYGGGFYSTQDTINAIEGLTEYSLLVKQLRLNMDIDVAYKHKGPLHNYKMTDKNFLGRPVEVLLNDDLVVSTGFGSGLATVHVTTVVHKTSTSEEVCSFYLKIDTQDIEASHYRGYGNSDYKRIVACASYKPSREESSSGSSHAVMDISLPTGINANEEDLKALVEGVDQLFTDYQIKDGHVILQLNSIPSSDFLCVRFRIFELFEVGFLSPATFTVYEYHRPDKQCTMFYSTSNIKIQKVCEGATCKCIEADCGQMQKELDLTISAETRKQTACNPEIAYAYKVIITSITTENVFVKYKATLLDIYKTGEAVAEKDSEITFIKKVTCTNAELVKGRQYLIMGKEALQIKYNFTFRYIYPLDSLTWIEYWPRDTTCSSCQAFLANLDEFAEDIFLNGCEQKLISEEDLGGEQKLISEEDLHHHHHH
Assay: SPR, mAb captured by anti-hFc, 25C
Please respond with the number in M⁻¹ s⁻¹ and leave the unit unwritten.

So what does the record say about kon for H4H12166P5 (antibody, human IgG4, V domains shown, human IgG4 Fc with S108P hinge mutation) VH: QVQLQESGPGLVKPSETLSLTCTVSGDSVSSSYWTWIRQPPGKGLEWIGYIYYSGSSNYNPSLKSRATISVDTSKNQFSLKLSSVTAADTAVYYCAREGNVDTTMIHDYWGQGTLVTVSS VL: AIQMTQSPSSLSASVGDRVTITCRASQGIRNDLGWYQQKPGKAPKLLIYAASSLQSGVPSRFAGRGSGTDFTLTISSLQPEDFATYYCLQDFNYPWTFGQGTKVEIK ?
144000

Also need H4H12169P (antibody, human IgG4, V domains shown) VH: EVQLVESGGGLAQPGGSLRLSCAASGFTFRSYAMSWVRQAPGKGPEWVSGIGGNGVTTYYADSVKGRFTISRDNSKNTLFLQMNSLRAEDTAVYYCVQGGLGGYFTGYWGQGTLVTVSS VL: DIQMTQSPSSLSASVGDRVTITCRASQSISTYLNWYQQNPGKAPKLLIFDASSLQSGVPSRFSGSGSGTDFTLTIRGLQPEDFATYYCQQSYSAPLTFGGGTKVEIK , thanks.
164000

What do you have for H4H12166P9 (antibody, human IgG4, V domains shown, human IgG4 Fc with S108P hinge mutation) VH: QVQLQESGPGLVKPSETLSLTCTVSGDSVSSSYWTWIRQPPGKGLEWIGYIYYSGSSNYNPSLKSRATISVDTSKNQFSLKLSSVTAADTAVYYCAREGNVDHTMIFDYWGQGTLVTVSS VL: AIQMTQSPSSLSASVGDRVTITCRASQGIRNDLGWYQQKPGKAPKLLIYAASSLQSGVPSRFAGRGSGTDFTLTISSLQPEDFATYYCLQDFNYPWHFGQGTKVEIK ?
170000

Same thing, different binder: H4H12166P8 (antibody, human IgG4, V domains shown, human IgG4 Fc with S108P hinge mutation) VH: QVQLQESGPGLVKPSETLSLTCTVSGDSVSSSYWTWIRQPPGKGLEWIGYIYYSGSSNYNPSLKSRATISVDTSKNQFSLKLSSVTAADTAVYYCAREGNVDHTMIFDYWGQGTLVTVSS VL: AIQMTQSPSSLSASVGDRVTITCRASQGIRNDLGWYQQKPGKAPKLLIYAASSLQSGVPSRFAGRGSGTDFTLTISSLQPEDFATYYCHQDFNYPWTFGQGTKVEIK
231000

Also check H4H12166P7 (antibody, human IgG4, V domains shown, human IgG4 Fc with S108P hinge mutation) VH: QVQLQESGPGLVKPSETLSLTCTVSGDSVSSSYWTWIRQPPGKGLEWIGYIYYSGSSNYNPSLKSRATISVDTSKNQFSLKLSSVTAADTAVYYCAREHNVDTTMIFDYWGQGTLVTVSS VL: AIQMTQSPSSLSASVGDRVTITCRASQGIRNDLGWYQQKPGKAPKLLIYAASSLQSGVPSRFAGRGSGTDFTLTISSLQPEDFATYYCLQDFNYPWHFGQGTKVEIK
136000

How about H4H12166P6 (antibody, human IgG4, V domains shown, human IgG4 Fc with S108P hinge mutation) VH: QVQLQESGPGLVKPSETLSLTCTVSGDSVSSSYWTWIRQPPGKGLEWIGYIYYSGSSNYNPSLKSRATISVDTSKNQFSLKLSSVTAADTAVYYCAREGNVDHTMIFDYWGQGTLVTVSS VL: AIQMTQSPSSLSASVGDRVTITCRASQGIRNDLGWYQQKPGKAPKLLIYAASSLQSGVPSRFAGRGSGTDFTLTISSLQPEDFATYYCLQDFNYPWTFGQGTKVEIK ?
239000

Ok, now H4H12167P (antibody, human IgG4, V domains shown) VH: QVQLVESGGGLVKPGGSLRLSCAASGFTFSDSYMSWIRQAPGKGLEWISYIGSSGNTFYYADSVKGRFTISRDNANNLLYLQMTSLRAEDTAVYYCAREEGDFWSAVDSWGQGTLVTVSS VL: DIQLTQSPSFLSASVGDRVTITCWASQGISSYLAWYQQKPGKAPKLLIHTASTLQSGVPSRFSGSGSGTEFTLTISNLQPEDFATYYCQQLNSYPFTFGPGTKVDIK
419000

How about this binder: H4H12166P2 (antibody, human IgG4, V domains shown, human IgG4 Fc with S108P hinge mutation) VH: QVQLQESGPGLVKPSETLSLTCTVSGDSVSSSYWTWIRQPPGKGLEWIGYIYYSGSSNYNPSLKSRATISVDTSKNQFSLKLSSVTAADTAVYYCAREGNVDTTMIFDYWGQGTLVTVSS VL: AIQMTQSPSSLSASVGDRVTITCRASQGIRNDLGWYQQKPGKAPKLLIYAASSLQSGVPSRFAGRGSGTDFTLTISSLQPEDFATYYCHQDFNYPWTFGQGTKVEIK
300000

Try this binder next: H4H12163P (antibody, human IgG4, V domains shown) VH: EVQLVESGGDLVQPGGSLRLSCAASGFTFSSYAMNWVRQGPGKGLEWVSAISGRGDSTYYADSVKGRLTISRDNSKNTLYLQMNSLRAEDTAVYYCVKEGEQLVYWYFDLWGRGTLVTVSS VL: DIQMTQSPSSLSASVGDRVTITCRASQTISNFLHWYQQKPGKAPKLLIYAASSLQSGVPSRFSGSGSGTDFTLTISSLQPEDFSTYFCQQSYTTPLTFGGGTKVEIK
311000

Can you handle H4H12168P (antibody, human IgG4, V domains shown) VH: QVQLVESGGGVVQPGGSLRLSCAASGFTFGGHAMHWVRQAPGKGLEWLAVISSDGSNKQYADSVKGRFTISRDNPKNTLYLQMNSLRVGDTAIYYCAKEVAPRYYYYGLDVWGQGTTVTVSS VL: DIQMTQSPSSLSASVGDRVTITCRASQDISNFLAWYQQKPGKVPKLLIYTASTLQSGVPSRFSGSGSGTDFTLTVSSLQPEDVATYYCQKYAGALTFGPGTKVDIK next?
173000
